Kd for assorted binders
Tested On: T1, recombinant hIL1RAP Domain1+2+3 (aa21-367) (human, UniProt Q9NPH3 21-367)
T1 construct: Numbering on Uniprot Q9NPH3
T1 sequence (looked up): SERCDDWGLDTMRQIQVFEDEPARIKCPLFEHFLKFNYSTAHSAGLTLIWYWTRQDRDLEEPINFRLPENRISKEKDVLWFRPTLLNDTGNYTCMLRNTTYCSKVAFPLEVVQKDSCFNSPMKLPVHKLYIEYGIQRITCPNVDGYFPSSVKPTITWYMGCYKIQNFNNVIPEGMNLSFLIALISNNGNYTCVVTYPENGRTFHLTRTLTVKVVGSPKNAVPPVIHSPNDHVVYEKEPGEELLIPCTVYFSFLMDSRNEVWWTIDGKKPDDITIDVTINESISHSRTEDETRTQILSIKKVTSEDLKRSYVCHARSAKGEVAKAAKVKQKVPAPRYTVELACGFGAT
Assay: bio-layer interferometry, human IL1RAP
Express the result in nM but write the number alone.

Binder	Kd (nM)
h48D2 VH2:VL3 (antibody, human IgG1, kappa, L234A L235A, V domains shown, Humanized; also called VL3:VH2) VH: EVQLVESGGALVQPGGSLRLSCIVSGPSLSHFDITWFRQAPGKGLEWVATISPGVSTYYASWAKSRFTISTDTSKNTLFLQMDSLRAEDTAVYYCARGGVGSSWKAFDLWGPGTLVTVSS VL: DILLTQTPSVVSASVGDRVTITCQASESISTALAWYQQKPGQAPRLLIYKASTLPSGVPSRFRGSGSGTDFTLTITSLQPEDFATYYCQQGFSSGNVHNAFGGGTRLEIKR	12.1

Prompt line: Tell me the measured Kd of h48D2 VH1:VL2 (antibody, human IgG1, kappa, L234A L235A, V domains shown, Humanized; also called VL2:VH1) VH: EVQLEESGGGLVKPGGSLRLSCAASGPSLSHFDITWVRQAPGKGLEWVSTISPGVSTYYASWAKSRFTISRDNSKNTLYLQMNSLRAEDTAVYYCARGGVGSSWKAFDLWGRGTLVTVSS VL: QIVLTQSPATLSASVGDRVTITCQASESISTALAWYQQKPGKAPKLLIYKASTLPSGVPSRFSGSGSGTEFTLTISSLQPDDSATYYCQQGFSSGNVHNAFGQGTKLEIKR , please.
Response line: 33.7

Prompt line: Now the same for h48D2 VH5:VL1 (antibody, human IgG1, kappa, L234A L235A, V domains shown, Humanized; also called VL1:VH5) VH: QEQLEESGGGLVKPGGTLSLTCTVSGPSLSHFDITWIRQAPGSGLEWIGTISPGVSTYYASWAKSRVTISVDTSLNTVSLKLSSVTAADTATYFCARGGVGSSWKAFDLWGPGTLVTISS VL: DIVMTQSPSSLSASVGDRVTITCQASESISTALAWYQQKPGKAPKLLIYKASTLPSGVPSRFSGSGSGTDFTLTISSLQPEDFATYYCQQGFSSGNVHNAFGGGTKVVIKR
Response line: 2.75
